Quick list: COX2 2 minutes pge2 area (counts) Avg. LLE per entry.
Target: human recombinant COX2 (hCOX2) (UniProt P35354)
Experiment: LCMS-based COX2 enzymatic inhibition assay (PGE2 quantification)
Format: biochemical
Set-up: COX2 2 minutes pge2/pge2d4 area ratio Avg; other: 2 minutes; readout pge2/pge2d4 area ratio; average; COX2 2 minutes pge2/pge2d4 area ratio Avg; LLE; average LLE; COX2 2 minutes pge2 area (counts) Avg; readout pge2 area (counts); other: 2 min; "ovine COX2 (oCOX2), human recombinant COX2 (hCOX2)"
Conditions: 2 minutes; readout pge2 area (counts); average LLE
The response must contain the number and no unit.

Query: Reported COX2 2 minutes pge2 area (counts) Avg. LLE for human recombinant COX2 (hCOX2) (UniProt P35354), given CS(=O)(=O)c1ccc(-c2cncc(OCc3ccsc3)n2)cc1 [Compound 134] ?
Response: 4.235

Query: Now the molecule CS(=O)(=O)c1ccc(-c2cccc(NCc3cccs3)c2)cc1 [Compound 42]
Response: 3.78

Query: Now the molecule CS(=O)(=O)c1ccc(-c2cncc(/C=C/c3cccs3)n2)cc1 [Compound 223]
Response: 2.918

Query: Now the molecule CS(=O)(=O)c1ccc(-c2cncc(OCc3ccc(F)cc3)n2)cc1 [Compound 294]
Response: 2.694

Query: Now the molecule CS(=O)(=O)c1ccc(-c2cncc(NCc3ncco3)n2)cc1 [Compound 246]
Response: 4.2875

Query: Now the molecule NS(=O)(=O)c1ccc(-c2cncc(NCc3cccs3)n2)cc1 [Compound 106]
Response: 5.699

Query: Now the molecule CS(=O)(=O)c1ccc(-c2cccc(C3CC3c3ccoc3)n2)cc1 (single isomer, unassigned) [Compound 177]
Response: 2.982

----------
Quick list: solubility per entry.
Experiment: PBS Solubility (no DMSO)
Assay type: physicochemical
Conditions: aqueous buffer, thermodynamic from solid, average
Dear colleague, please return just the value in µM, with no unit written.

The following compounds have reported results that may help.
COc1ccc(NCc2cccs2)nc1-c1ccc(S(C)(=O)=O)cc1; 1.3
CS(=O)(=O)c1ccc(-c2cccc(OCc3ccoc3)n2)cc1; 10

Please look at the following compound next.
Query: Look at this compound and give its reported solubility. "CS(=O)(=O)c1ccc(-c2cccc(/C=C\c3ccoc3)n2)cc1"
Response: 37

----------
Quick list: IC50 per entry.
Target: ovine COX-1 (oCOX-1) (Ovis aries)
Construct: purchased Cayman Chemicals (Ann Arbor, Mich.)
Sequence (P05979 25-600): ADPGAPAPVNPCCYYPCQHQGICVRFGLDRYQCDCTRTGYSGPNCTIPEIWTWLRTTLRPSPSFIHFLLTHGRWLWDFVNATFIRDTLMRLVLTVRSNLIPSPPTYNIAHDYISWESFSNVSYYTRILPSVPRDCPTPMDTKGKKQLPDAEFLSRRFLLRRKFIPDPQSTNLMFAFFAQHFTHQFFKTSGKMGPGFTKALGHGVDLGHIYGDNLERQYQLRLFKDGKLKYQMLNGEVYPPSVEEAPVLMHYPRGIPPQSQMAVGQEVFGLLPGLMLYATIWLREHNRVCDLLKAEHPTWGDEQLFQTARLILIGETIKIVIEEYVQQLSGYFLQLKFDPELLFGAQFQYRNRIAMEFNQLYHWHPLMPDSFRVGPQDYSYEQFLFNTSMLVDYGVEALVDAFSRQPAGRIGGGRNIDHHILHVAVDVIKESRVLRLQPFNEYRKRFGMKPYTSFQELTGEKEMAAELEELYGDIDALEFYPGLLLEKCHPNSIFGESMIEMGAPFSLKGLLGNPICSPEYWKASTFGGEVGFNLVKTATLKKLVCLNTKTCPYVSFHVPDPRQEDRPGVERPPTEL
Experiment: LCMS-based COX-1 enzymatic inhibition assay (PGE2 quantification)
Assay type: biochemical
Conditions: 10 minutes; readout pge2/pge2d4 area ratio; average; read-out: COX1 10 minutes pge2/pge2d4 area ratio Avg. IC50
Dear colleague, please return just the value in µM, with no unit written.

The following molecules have reported results that may help.
CS(=O)(=O)c1ccc(-c2cc3ccoc3c(NCc3cccs3)n2)cc1; 19.6
CS(=O)(=O)c1ccc(-c2cccc(OCc3ccc(F)s3)n2)cc1; 42.8
COc1ccc(NCc2cccs2)nc1-c1ccc(S(C)(=O)=O)nc1; 16

Query: Look at this molecule and give its reported IC50. "CS(=O)(=O)c1ccc(-c2cccc(NCc3ccoc3)n2)cc1"
Response: 38.8

Query: Now the molecule "CS(=O)(=O)c1ccc(-c2cnc3cnn(Cc4cccs4)c3n2)cc1"
Response: 10.2

Query: Now the molecule "CS(=O)(=O)c1ccc(-c2cccc(NCc3cccs3)n2)cc1"
Response: 34.7

Query: Now the molecule "CS(=O)(=O)c1ccc(-c2cnc3ccn(Cc4cccs4)c3n2)cc1"
Response: 0.305
